test system: SNB-19 CNS; assay: NCI-60 one-dose screen, 48 h; settings: 10 µM unless noted
Compounds without any hit were thinned out: in the full panel of roughly 83,000, 20% have a hit. Activity calls are given as the source filed them. Rule for the calls: active = growth percent below 10; inactive = the rest.
Entry note: the call must match one of active, inactive

Asked: What did this assay record as the result for NC(=O)/C=C/C(=O)c1c(Cl)cccc1Cl ?
Given back: active

Asked: Recorded call for O[C@H]1[C@H]2c3cc4c(cc3CN3CCC(=C[C@@H]1O)[C@H]23)OCO4 ?
Given back: inactive

Asked: Please state the recorded outcome for this compound: O=C1OCc2cccc3cccc1c23
Given back: inactive

Asked: Tell me the assay call for Cc1cc2nc(CS)[nH]c2cc1C please.
Given back: inactive

Asked: Each compound tested received a call. Report the one for Oc1c(Br)c(Br)c(O)c(Br)c1Br .
Given back: inactive

Asked: Answer briefly: the call reported for CCN(CC)CCOc1ccc(-c2nc3cc(Cl)ccc3s2)cc1 in this assay.
Given back: inactive

Asked: Dear all, I need the recorded test outcome for C=CCOc1ccc(N=NC(C#N)C#N)cc1 , thank you.
Given back: inactive

Asked: Which result was noted for this compound in the test: Nc1ccc(SSc2ccc(N)cc2)cc1
Given back: inactive

Asked: Hey, what did the test say about Cc1c2ccccc2c(C)c2c1ccc1ccccc12 ?
Given back: inactive

Asked: Dear colleague, could you share the recorded outcome for Cc1ccc(N=C=C(c2ccccc2)c2ccccc2)cc1 when you have a moment?
Given back: inactive

Asked: Query: recorded result category for Nc1nc(N)c2c(ccc3c2ccn3Cc2cccc([N+](=O)[O-])c2)n1 in this test
Given back: active

Asked: Dear all, I need the recorded test outcome for CCN(CC)CC(C)(C)C(=O)/C=C/c1ccc(Cl)c(Cl)c1 , thank you.
Given back: active

Asked: Returns: the outcome recorded for O=C1NC(=O)/C(=C/C=C/c2ccccc2)S1 in this assay.
Given back: inactive

Asked: Test call for this compound, please: COc1ccccc1/C=C\C(=O)c1ccccc1
Given back: inactive

Asked: Recorded call for Cn1c2c(c3ccccc31)CCN1C[C@@H]3CCCC[C@H]3C[C@@H]21 ?
Given back: inactive

Asked: Tell me the recorded outcome of this test for O=C1C2=C(Nc3cc([N+](=O)[O-])ccc3N2)OC1c1c2ccccc2cc2ccccc12 (stereo not given) .
Given back: inactive

Asked: Which outcome was assigned to COc1cc(/C=C(/C)C[N+](=O)[O-])ccc1O in this test?
Given back: inactive

Asked: How did this test come out for CC(C)c1ccc2nc3ccc(C(=O)NCCN4CCN(c5ccccc5)CC4)cn3c(=O)c2c1 ?
Given back: inactive

Asked: Test call for this compound, please: CN(C)c1ccc(/C=N/N=C(\C#N)[S][Sn]([Cl])([c]2ccccc2)[c]2ccccc2)cc1
Given back: inactive

Asked: Per the assay record, what outcome was assigned to O=C1c2ccccc2C(=O)N1c1ccccc1 ?
Given back: inactive

Asked: Call for entry COC(=O)[C@@]12OC[C@]34[C@H]([C@@H](O)[C@@H]1O)[C@@]1(C)[C@H](O)C(=O)C=C(C)[C@@H]1C[C@H]3OC(=O)C(OC(C)=O)[C@@H]24 (stereo not given in full) :
Given back: active

Asked: What call does the record list for N#CSCC(=O)c1ccc(Cl)cc1 ?
Given back: inactive

Asked: Could you please tell me the result logged for CC(=O)ON=C1C=CC(=C(C#N)c2ccccc2)C=C1 in this assay?
Given back: inactive

Asked: Per the assay record, what outcome was assigned to Cc1ccnc2c1ccc1c(C)ccnc12 ?
Given back: inactive

Asked: Fill in: this test's call for OC(CNc1ccnc2cc(Cl)ccc12)CNc1ccnc2cc(Cl)ccc12 is ___
Given back: inactive

Asked: What did this assay record as the result for CNc1ccc2c(c1)c1ccccc1n2C ?
Given back: inactive

Asked: Called result for CCCCCCC(C)c1ccccc1O (stereo not given) (tested in a mixture with another compound)
Given back: inactive

Asked: Short answer needed: outcome of this test for O=C(Nc1cccc(Br)c1)Oc1ccc(Cl)c2cccnc12 ?
Given back: inactive

Asked: What did this assay record as the result for O=Nc1ccccc1N=O ?
Given back: inactive

Asked: Test call, this compound: COc1ccc2nc3cc(Cl)ccc3c(NCCNc3c4ccc(Cl)cc4nc4ccc(OC)cc34)c2c1
Given back: active

Asked: Please state the recorded outcome for this compound: S=C(N/N=C/c1ccccn1)Nc1ccccn1
Given back: inactive

Asked: Call for entry O=C(CC1(O)C(=O)Nc2c(Cl)ccc(Cl)c21)c1ccc(Cl)cc1Cl (stereo not given) :
Given back: inactive

Asked: Hey, what did the test say about CNc1ccc(N)cc1 ?
Given back: inactive

Asked: Which result was noted for this compound in the test: CCCCCCCCCCCCCCCCOP(=O)([O-])OCC[N+](C)(C)C
Given back: active

Asked: Returns: the outcome recorded for COC(=O)c1nc(=S)[nH]c(C(=O)OC)c1C(=O)c1ccccn1 in this assay.
Given back: inactive

Asked: Query: recorded result category for CN(C)C(=O)SC1=C(c2c(Cl)cccc2Cl)C(=O)c2ccccc21 in this test
Given back: inactive

Asked: Can you look up the reported call for N#CSCc1ccc(CSC#N)c(Cl)c1 for me?
Given back: inactive

Asked: Outcome logged for CCOC(=O)c1c(C)[nH]c(CO)c1C in this assay:
Given back: inactive

Asked: Please share the test call associated with CCOc1ccc(-c2nc3ccc(-c4nc5ccc(N6CCN(C)CC6)cc5[nH]4)cc3[nH]2)cc1 .
Given back: active

Asked: Check the results log: what was the call for NC1=CC(=O)c2ccccc2C1=O ?
Given back: inactive

Asked: Returns: the outcome recorded for CC(C)(C)c1ccc(O)c(C2CCCCC2)c1 in this assay.
Given back: inactive

Asked: Recorded call for CC1(C)CC([P+](c2ccccc2)(c2ccccc2)c2ccccc2)=NN1 ?
Given back: inactive

Asked: Tell me the assay call for CCCCCCCCCCCCCCNCc1ccccc1 please.
Given back: inactive

Asked: Hello, I am checking results. What call was entered for C/C=C1\SC(=S)NC1=O ?
Given back: inactive

Asked: # fetch the recorded call for N#CSCc1c(Cl)cccc1Cl here
Given back: inactive

Asked: // param item: Cn1c2ccccc2c2nnc(N/N=C/c3ccccn3)nc21 ; yields the recorded call
Given back: inactive

Asked: Look up the recorded call for O=C(Nc1ccccc1)c1cc(Cl)ccc1O in this test.
Given back: inactive

Asked: What did this assay record as the result for CCOC(=O)/C=C/c1ccc([N+](=O)[O-])o1 ?
Given back: inactive

Asked: For CC(=O)C(=Cc1ccc(C=C(C(C)=O)C(C)=O)cc1)C(C)=O , what call appears in the results of this test?
Given back: inactive

Asked: Which outcome did this test record for the compound O=C(Nc1ccc(F)cc1)ON=C1CCCCC1 ?
Given back: inactive
